test system: PC-3 (prostate cancer); experiment: MTT cytotoxicity assay, PC-3; format: cell-based; conditions: MTT assay
readoutKind: antiproliferative/cytotoxic activity against PC-3 (in words)

[
  {
    "compound": "CC1=CC(=O)C(=C(C)C)C[C@H]2[C@H]1CC[C@]2(C)O",
    "targetOfAssay": "PC-3 (prostate cancer)",
    "result": "good cytotoxic effect"
  },
  {
    "compound": "C/C1=C\\CC[C@@]2(C)O[C@@H]2CC(C)(C)/C=C/C1=O [Compound 8, zerumbone epoxide]",
    "targetOfAssay": "PC-3 (prostate cancer)",
    "result": "good cytotoxic effect"
  }
]
